Literature-derived Ki for Serine/threonine-protein kinase pim-3 (Homo sapiens) follows.
assay-metric: Ki (nM)

compound: Cc1cncc(-c2cc3c(cn2)cnn3-c2cccc(N3CCNCCC3=O)n2)n1
test-system: Serine/threonine-protein kinase pim-3 (Homo sapiens)
assay-result: 2.3
//
compound: COc1ccc(-c2nc(C(=O)Nc3cnccc3N3CCC[C@H](N)C3)c(N)s2)c(F)c1
test-system: Serine/threonine-protein kinase pim-3 (Homo sapiens)
assay-result: 1.13
//
compound: Cn1ncc(NC(=O)c2nc(-c3ccccc3F)cnc2N)c1N1CCC(N)CC1
test-system: Serine/threonine-protein kinase pim-3 (Homo sapiens)
assay-result: 0.962

1. Cc1cncc(-c2cc3c(cn2)cnn3-c2ccc(C3CC3)c(N3CCCNCC3)n2)n1
2. Nc1sc(Cc2ccccc2)nc1C(=O)Nc1cnccc1N1CCC[C@H](N)C1
Compare 1 and 2 by numeric Ki and name the larger one. Respond with the label that goes with your answer. 2
(2: 12.7 nM, 1: 0.046 nM)

* * *

Literature-derived Ki for Serine/threonine-protein kinase pim-3 (Homo sapiens, UniProt Q86V86) follows.
assay-metric: Ki (nM)

molecule: Cn1cc(-c2cc3c(cn2)cnn3-c2cccc(C3CCCNCC3)n2)cn1 (stereo not shown)
unit-abbrev: nM
Ki: 0.806
--
molecule: Cn1ncc(NC(=O)c2nc(-c3ccccc3F)ccc2N)c1OC1CCNCC1
unit-abbrev: nM
Ki: 4.97
--
molecule: N[C@H]1CCCN(c2ccncc2NC(=O)c2csc(-c3ccccc3)n2)C1
unit-abbrev: nM
Ki: 0.487
--
molecule: Cc1cncc(-c2cc3c(cn2)cnn3-c2cc(N3CCC[C@H](N)C3)c(=O)n(C)c2)n1
unit-abbrev: nM
Ki: 903
--
molecule: O[C@H]1CNCCN(c2cccc(-n3ncc4cnc(-c5cnn(CC(F)(F)F)c5)cc43)n2)C1
unit-abbrev: nM
Ki: 0.089

I. OC1CN(c2cncc(-c3cc4c(cn3)cnn4-c3cccc(N4CCNCC4)n3)n2)C1
II. CN(C)Cc1nc(C(=O)Nc2cnccc2N2CCC[C@H](N)C2)c(N)s1
Hi there, can you help? I need to know whether I or II has lower measured Ki. Respond with the label that goes with your answer. I
